# experimentalDetails: Metabolic stability in mouse liver microsomes
# Assay type: in vitro ADME
metric: Metabolic stability (mouse liver microsomes) % of compound remaining after 30 minutes (%)
Report only the number, with the unit % understood.

Problem: Using the record for Cc1c(CN(C)C(=O)/C=C/c2cnc3c(c2)C2(CCCC2)C(=O)N3)sc2ccccc12 [VT-02-00074] , report its Metabolic stability (mouse liver microsomes) % of compound remaining after 30 minutes.
Solution: 8

Problem: Using the record for CCC1(CC)C(=O)Nc2ncc(/C=C/C(=O)N(C)Cc3cc4ccccc4n3C)cc21 [VT-02-00064] , report its Metabolic stability (mouse liver microsomes) % of compound remaining after 30 minutes.
Solution: 18

Problem: Using the record for CCn1c(=O)[nH]c2ncc(/C=C/C(=O)N(C)Cc3cc4ccccc4s3)cc21 [VT-02-00049] , report its Metabolic stability (mouse liver microsomes) % of compound remaining after 30 minutes.
Solution: 44

Problem: Using the record for Cc1c(CN(C)C(=O)/C=C/c2cnc3c(c2)C(C)(C)C(=O)N3)sc2ccccc12 [VT-02-00069] , report its Metabolic stability (mouse liver microsomes) % of compound remaining after 30 minutes.
Solution: 10

Problem: Using the record for CCC1(CC)C(=O)Nc2ncc(/C=C/C(=O)N(C)Cc3oc4ccccc4c3C)cc21 [VT-02-00071] , report its Metabolic stability (mouse liver microsomes) % of compound remaining after 30 minutes.
Solution: 12

Problem: Using the record for Cc1c(CN(C)C(=O)/C=C/c2cnc3c(c2)C2(CCC2)C(=O)N3)c2ccccc2n1C [VT-02-00091] , report its Metabolic stability (mouse liver microsomes) % of compound remaining after 30 minutes.
Solution: 21

Problem: Using the record for Cc1c(CN(C)C(=O)/C=C/c2cnc3c(c2)C2(CCCCC2)C(=O)N3)sc2ccccc12 [VT-02-00075] , report its Metabolic stability (mouse liver microsomes) % of compound remaining after 30 minutes.
Solution: 5

Problem: Using the record for CCn1c(=O)[nH]c2ncc(/C=C/C(=O)N(C)Cc3cc4ccccc4n3C)cc21 [VT-02-00044] , report its Metabolic stability (mouse liver microsomes) % of compound remaining after 30 minutes.
Solution: 50

Problem: Using the record for CN(Cc1cc2ccccc2n1C)C(=O)/C=C/c1cnc2c(c1)C1(CCC1)C(=O)N2 [VT-02-00070] , report its Metabolic stability (mouse liver microsomes) % of compound remaining after 30 minutes.
Solution: 45

Problem: Using the record for Cc1c(CN(C)C(=O)/C=C/c2cnc3c(c2)C2(CCC2)C(=O)N3)sc2ccccc12 [VT-02-00073] , report its Metabolic stability (mouse liver microsomes) % of compound remaining after 30 minutes.
Solution: 11
